Biological target: Dihydrofolate reductase (Homo sapiens)
Sequence (P00374 whole entry): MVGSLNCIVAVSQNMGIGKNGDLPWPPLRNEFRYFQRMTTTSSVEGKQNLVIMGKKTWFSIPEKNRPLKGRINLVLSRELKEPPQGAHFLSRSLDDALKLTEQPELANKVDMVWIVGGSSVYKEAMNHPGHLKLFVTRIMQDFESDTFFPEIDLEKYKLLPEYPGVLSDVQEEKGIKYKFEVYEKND
Assay: Antimycobacterial activity against human dihydrofolate reductase (hDHFR)
Note to self: IC50 under 500 nM means MET, ties and anything higher get NOT MET.

Example results:
I'd appreciate it if you could check whether COCc1c(CNc2cc(OC)ccc2OC)cnc2nc(N)nc(N)c12 has IC50 smaller than 500 nM. NOT MET

I'd appreciate it if you could check whether Cc1cc(C)c(NCc2cnc3nc(N)nc(N)c3c2C)c(Cl)c1 has IC50 smaller than 500 nM. NOT MET

I'd appreciate it if you could check whether Cc1c(CNc2ccc3ncccc3c2)cnc2nc(N)nc(N)c12 has IC50 smaller than 500 nM. MET

I'd appreciate it if you could check whether Cc1c(CNc2ccc(Cl)c3ccccc23)cnc2nc(N)nc(N)c12 has IC50 smaller than 500 nM. MET

I'd appreciate it if you could check whether Nc1nc(N)c2cc(CNc3cccc4ccccc34)cnc2n1 has IC50 smaller than 500 nM. NOT MET

I'd appreciate it if you could check whether COc1ccc(C(F)(F)F)cc1NCc1cnc2nc(N)nc(N)c2c1C has IC50 smaller than 500 nM. MET

I'd appreciate it if you could check whether Cc1c(CNc2cc(C(F)(F)F)ccc2F)cnc2nc(N)nc(N)c12 has IC50 smaller than 500 nM. MET

I'd appreciate it if you could check whether Cc1c(CSc2ccc(Cl)cc2)cnc2nc(N)nc(N)c12 has IC50 smaller than 500 nM. NOT MET

I'd appreciate it if you could check whether CCCOc1ccc(NCc2cnc3nc(N)nc(N)c3c2C)cc1OC has IC50 smaller than 500 nM. MET

I'd appreciate it if you could check whether Cc1c(CNC2c3ccccc3-c3ccccc32)cnc2nc(N)nc(N)c12 has IC50 smaller than 500 nM. NOT MET

New cases:
I'd appreciate it if you could check whether COc1cc(NCc2cnc3nc(N)nc(N)c3c2C)cc(C(F)(F)F)c1 has IC50 smaller than 500 nM. MET

I'd appreciate it if you could check whether Cc1c(CNc2ccccc2OC(F)F)cnc2nc(N)nc(N)c12 has IC50 smaller than 500 nM. MET

I'd appreciate it if you could check whether Cc1c(CNc2cc(F)ccc2F)cnc2nc(N)nc(N)c12 has IC50 smaller than 500 nM. MET

I'd appreciate it if you could check whether COCc1c(CNc2ccc(Cl)cc2)cnc2nc(N)nc(N)c12 has IC50 smaller than 500 nM. NOT MET

I'd appreciate it if you could check whether Cc1cccc(SCc2cnc3nc(N)nc(N)c3c2C)c1 has IC50 smaller than 500 nM. NOT MET

I'd appreciate it if you could check whether COc1cc(CCc2cnc3nc(N)nc(N)c3c2C)cc(OC)c1 has IC50 smaller than 500 nM. NOT MET

I'd appreciate it if you could check whether COc1ccc(NCc2cnc3nc(N)nc(N)c3c2C)cc1OC has IC50 smaller than 500 nM. MET

I'd appreciate it if you could check whether COc1ccc(SCc2cnc3nc(N)nc(N)c3c2C)cc1OC has IC50 smaller than 500 nM. MET

I'd appreciate it if you could check whether Cc1cc(Br)cc(C)c1NCc1cnc2nc(N)nc(N)c2c1C has IC50 smaller than 500 nM. NOT MET

I'd appreciate it if you could check whether Cc1ccc(F)c(NCc2cnc3nc(N)nc(N)c3c2C)c1 has IC50 smaller than 500 nM. MET

I'd appreciate it if you could check whether COc1cc(NCc2cnc3nc(N)nc(N)c3c2C)cc(OC)c1OC has IC50 smaller than 500 nM. MET

I'd appreciate it if you could check whether Cc1cc(NCc2cnc3nc(N)nc(N)c3c2C)ccc1Br has IC50 smaller than 500 nM. MET
